Test: Toxicity liver stage against HepG2, at 10uM
Format: cell-based
Design: test concentration 10 uM, cell line HepG2-A16-CD81EGFP
Conditions: human, HepG2-A16-CD81EGFP cells; read-out: INHIBITION
readout type: cytotoxicity at 10 µM (%)
Write the value in % as a bare number.

[in] Value lookup for cytotoxicity at 10 µM; key = COc1ccc2c(c1)C1(CCNCC1)CC2NC1CC1 (configuration not stated)
[out] -117

[in] Value lookup for cytotoxicity at 10 µM; key = CN(CC1Cc2ccccc2CN1C)C(=O)CSc1ccccn1 (configuration not stated)
[out] -1.32

[in] Value lookup for cytotoxicity at 10 µM; key = O=C1N(Cc2cccc(F)c2F)CCCC1(O)CNCc1ccccn1 (configuration not stated)
[out] -9.28

[in] Value lookup for cytotoxicity at 10 µM; key = CCN1CCC2(CC1)CC(NC(=O)c1csnn1)c1ccccc1O2 (configuration not stated)
[out] -116

[in] Value lookup for cytotoxicity at 10 µM; key = `CCN(CC)S(=O)(=O)c1ccc(C(F)(F)F)cc1C#N`
[out] -13.4

[in] Value lookup for cytotoxicity at 10 µM; key = `O=C(C1CCOCC1)N1CCN2C(=O)N(Cc3ccc(F)cc3)C[C@H]2C1`
[out] -1.34

[in] Value lookup for cytotoxicity at 10 µM; key = Cc1nc[nH]c1CN1CCCC(CNC(=O)c2ccc(N)nc2)C1 (configuration not stated)
[out] 1.56

[in] Value lookup for cytotoxicity at 10 µM; key = `CCN(Cc1c(F)cccc1F)Cn1nc(C)c2c(C)onc2c1=O`
[out] -1.52

[in] Value lookup for cytotoxicity at 10 µM; key = `Cc1csc(CN2CCC(C(=O)O)(n3ccc(-c4ccco4)n3)CC2)n1`
[out] -127

[in] Value lookup for cytotoxicity at 10 µM; key = `CCc1nn(-c2cc(Oc3cc(C)ccc3C)ncn2)c(N)c1C#N`
[out] 12.9

[in] Value lookup for cytotoxicity at 10 µM; key = Cc1cc(C)n(CC2CCCN2C(=O)c2cccc3[nH]ncc23)n1 (configuration not stated)
[out] -5.55

[in] Value lookup for cytotoxicity at 10 µM; key = `CN(C)C(=O)c1cc2ncc(C(=O)NC3CC3)cc2n1C`
[out] -0.931

[in] Value lookup for cytotoxicity at 10 µM; key = O=C(NCC1COCc2c(-c3cccnc3)nnn2C1)c1cccs1 (configuration not stated)
[out] 2.93

[in] Value lookup for cytotoxicity at 10 µM; key = `Cc1ccc(N2CCO[C@H]3CN(CC4CC4)C[C@H]32)nn1`
[out] -7.93

[in] Value lookup for cytotoxicity at 10 µM; key = `Cc1ccc(S(=O)(=O)Nc2ccc(-n3nnn(C)c3=O)cc2)cc1`
[out] -4.1

[in] Value lookup for cytotoxicity at 10 µM; key = `O=C(c1cccnc1)N1CCn2nnc(COc3cccnc3)c2C1`
[out] 3.34

[in] Value lookup for cytotoxicity at 10 µM; key = CCN1C(=O)CCC12CCCN(S(=O)(=O)c1cccc(C)c1)CC2 (configuration not stated)
[out] -4.54

[in] Value lookup for cytotoxicity at 10 µM; key = `Cc1ccc(CNC(=O)c2ccc(=O)n(C)n2)c(OCC2CC2)c1`
[out] -5.92

[in] Value lookup for cytotoxicity at 10 µM; key = `CCCN1CCCN(S(=O)(=O)c2cnc3onc(C)c3c2)CC1`
[out] 1.71

[in] Value lookup for cytotoxicity at 10 µM; key = CC(NCCCN1CCCN(C)CC1)C(C)(C)C (configuration not stated)
[out] 29.9

[in] Value lookup for cytotoxicity at 10 µM; key = `Cn1cc(C(=O)N2CC[C@@H]3[C@@H]2CCN3Cc2cccnc2)cn1`
[out] 3.06

[in] Value lookup for cytotoxicity at 10 µM; key = Cc1nc(C2CCCN2C(=O)CCCOc2ccccc2C)no1 (configuration not stated)
[out] -2.21

[in] Value lookup for cytotoxicity at 10 µM; key = `NC(=O)c1ccc(CNC2CC2)cc1`
[out] 8.57

[in] Value lookup for cytotoxicity at 10 µM; key = `CN1CCN(C(=O)NCCc2ccc(F)cc2)[C@H]2CS(=O)(=O)C[C@H]21`
[out] 10.8

[in] Value lookup for cytotoxicity at 10 µM; key = `CCOc1ccc(NC(=O)Nc2cnc(N3CCOCC3)nc2)cc1`
[out] -11.4

[in] Value lookup for cytotoxicity at 10 µM; key = `CCn1cnnc1C1CCN(C(=O)c2ccc(OC(C)C)nc2)CC1`
[out] 1.14

[in] Value lookup for cytotoxicity at 10 µM; key = `COc1cc(CCC(=O)NC(C)(C)C)ccc1OCC(F)(F)F`
[out] -8.76
